The reported numbers originate from patent US8450319B2.

molecular target: PDE4; assay: Measurement of PDE4 enzyme inhibiting action; settings: PDE4 enzyme solution from polymorphonuclear leukocytes of healthy volunteer; 0.2 μM [3H]cAMP, 30° C., 30 minutes; read-out: PDE4 inhibition IC50 value
pIC50: −log10 of the molar value.
Label label 1 for high-side pIC50 (at or above 8) and label 0 for low-side pIC50 (below it).

# molecule, group
measured = [
    ("COc1ccc(Cc2c(-c3ccc(OC(F)F)c(OC4CC4)c3)[nH]c3cn[nH]c(=O)c23)cn1", "label 1"),
]

[in] # bool: pIC50 of O=c1[nH]ncc2[nH]c(-c3ccc(OC(F)F)c4c3C=CC(C3CC3)O4)cc12 (stereo not shown) >= 8
[out] label 0

[in] # bool: pIC50 of "CCOCCc1c(-c2ccc(OC(F)F)c(OC3CC3)c2)[nH]c2cn[nH]c(=O)c12" >= 8
[out] label 1

[in] # bool: pIC50 of "CC(C)COCc1c(-c2ccc(OC(F)F)c(OC3CC3)c2)[nH]c2cn[nH]c(=O)c12" >= 8
[out] label 1

[in] # bool: pIC50 of "CC(C)Cc1c(-c2ccc(OC(F)F)c(OC3CC3)c2)[nH]c2cn[nH]c(=O)c12" >= 8
[out] label 1

----------
Counter-ions that a name gives are not always drawn.
assay_readout: melting point

Guide cases for melting point, answers given:
# molecule, melting point
records = [
    ("CCc1c(-c2ccc(OC(F)F)c(OC3CC3)c2)[nH]c2cn[nH]c(=O)c12", "223 to 225 °C"),
    ("CCC(CC)OCc1c(-c2ccc(OC(F)F)c(OC3CC3)c2)[nH]c2cn[nH]c(=O)c12", "133 to 162 °C"),
    ("O=c1[nH]ncc2[nH]c(-c3ccc(OC(F)F)c(OC4CCC4)c3)c(Cl)c12", "273 to 275 °C"),
    ("N#Cc1ccccc1Cc1c(-c2ccc(OC(F)F)c(OC3CC3)c2)[nH]c2cn[nH]c(=O)c12", "> 300 °C"),
    ("CC(C)C#CCc1c(-c2ccc(OC(F)F)c(OC3CC3)c2)[nH]c2cn[nH]c(=O)c12", "139 to 143 °C"),
]

[in] Complete the entry with melting point for C=CC(O)c1c(-c2ccc(OC(F)F)c(OC3CC3)c2)[nH]c2cn[nH]c(=O)c12 (centres unmarked)
[out] 202 to 203 °C

[in] Complete the entry with melting point for "COc1ccc(-c2[nH]c3cn[nH]c(=O)c3c2Cl)cc1OC(C)C"
[out] 291 to 299 °C

[in] Complete the entry with melting point for "COc1ccc(-c2[nH]c3cn[nH]c(=O)c3c2Cl)cc1OC1CC1"
[out] 293 to 294 °C

[in] Complete the entry with melting point for CCc1c(-c2ccc(OC(F)F)c(OCC3CC3)c2)[nH]c2cn[nH]c(=O)c12 (as salt: HCl)
[out] 224 to 227 °C

[in] Complete the entry with melting point for "COc1ccc(-c2[nH]c3cn[nH]c(=O)c3c2Cl)cc1OC1CCC1"
[out] 285 to 287 °C

[in] Complete the entry with melting point for "CC#CCc1c(-c2ccc(OC(F)F)c(OC3CC3)c2)[nH]c2cn[nH]c(=O)c12"
[out] 231 to 236 °C

----------
target: PDE4; assay: Measurement of PDE4 enzyme inhibiting action; conditions: PDE4 enzyme solution from polymorphonuclear leukocytes of healthy volunteer; 0.2 μM [3H]cAMP, 30° C., 30 minutes; read-out: PDE4 inhibition IC50 value
assay_readout: pIC50
Scale note: pIC50 = -log10(concentration in M).

Guide cases for pIC50, answers given:
# item_smiles, pIC50
measured = [
    ("CCc1c(-c2ccc(OC(F)F)c(OCC3CC3)c2)[nH]c2cn[nH]c(=O)c12", 8.18),
    ("O=c1[nH]ncc2[nH]c(-c3ccc(OC(F)F)c(OC4CCC4)c3)cc12", 8.04),
    ("Cc1c(-c2ccc(OC(F)F)c3c2C=CC(C)(C)O3)[nH]c2cn[nH]c(=O)c12", 7.77),
    ("O=c1[nH]ncc2[nH]c(-c3ccc(OC(F)F)c(OC4CCC4)c3)c(-c3ccccc3)c12", 8.06),
]

As a next step, examine the molecule that follows.
[in] Complete the entry with pIC50 for "O=c1[nH]ncc2[nH]c(-c3ccc(OC(F)F)c(OCC4CC4)c3)c(Cl)c12"
[out] 8.10
